Where do these numbers come from? They come from patent US20110143948A1.

- System: ncRNAs (SEQ ID NO 28-89)
- assay remarks: ncRNA arrays of melanocytes, keratinocytes, normal skin, melanoma cell lines and patient samples
- Set-up: species or system human
- test conditions: melanoma patient 4 sample compared to normal skin
- Experimental: An ncRNA array platform that contains over 10,000 putative (>200 nt) ncRNAs including most of the known ncRNAs in mouse and human was conducted to evaluate ncRNAs within melanoma. Lack of coding potential was estimated by an algorithm that scores various characteristics of protein-coding genes, including open reading frame length, synonymous/non-synonymous base substitution rates and similarity to known proteins. […]
Reported ncRNA array expression, patient 4 is given for each of the following substances.

{"substance": "SEQ ID NO 38 (GTAAACAAGGTCTCACAAAAACAGCTGACCACACCATAAAATCACTGAGACCGAGCCTGC; listed as DNA, chemistry not given here; listed as Homo sapiens)", "ncRNA array expression, patient 4": "−0.9275"}
{"substance": "SEQ ID NO 88 (CTGTTGCTTATTCTGGGAGCCCAATCCTAGGCTGAGGGAGGTGGGCGCGGGGCTGTTTAA; listed as DNA, chemistry not given here; listed as Homo sapiens)", "ncRNA array expression, patient 4": "−1.158"}
{"substance": "SEQ ID NO 67 (TTCCCTATTCCATCCTTTGATGGGTGGCCTGTTACACGTTTGGAAATAAAAACAAGTGGG; listed as DNA, chemistry not given here; listed as Homo sapiens)", "ncRNA array expression, patient 4": 0.6532}
{"substance": "SEQ ID NO 54 (TTTTTTTTCTTGTCCTATTACAACATTTTATAACCTTATGAATCAATGGATACTTTTATT; listed as DNA, chemistry not given here; listed as Homo sapiens)", "ncRNA array expression, patient 4": 3.179}
{"substance": "SEQ ID NO 37 (ACGCACTGGGCGTTGAAGCAGTGCTTTCTGGATTAAATACGAAATACTGATGTCACAAGC; DNA, backbone and methylation of C not given here; listed as Homo sapiens)", "ncRNA array expression, patient 4": 0.7773}
{"substance": "SEQ ID NO 31 (TTGCTTTTGTATTTGTAATTTTATGACATTTCGAAGTTTCTGTGTCTTAACTCTTTTTAA; listed as DNA, chemistry not given here; listed as Homo sapiens)", "ncRNA array expression, patient 4": 2.238}
{"substance": "SEQ ID NO 78 (ATGGAAAGGCCAGGGGAGGGTGGAGCTCAGGAGTGGAAGCACAGGGACTAAGGCCTGAGC; listed as DNA, chemistry not given here; listed as Homo sapiens)", "ncRNA array expression, patient 4": "−3.593"}
{"substance": "SEQ ID NO 39 (TGATCCTGTAAATCATGTTTTTGTTTATTCCCCAACACTAACCTCACTCCTTTACTATTC; listed as DNA, chemistry not given here; listed as Homo sapiens)", "ncRNA array expression, patient 4": "−1.149"}
{"substance": "SEQ ID NO 60 (ACTAACAGCACTGGAGGGTGTAGTGTTTCCTACTTTATGGATGAGTGTACTGTGGGCTTC; listed as DNA, chemistry not given here; listed as Homo sapiens)", "ncRNA array expression, patient 4": 2.327}
{"substance": "SEQ ID NO 83 (TCAGTTTGATGATTGGGCTAGGGAATGAAGCTTTGCCACTTAGGAGATAAACCCCATAAC; listed as DNA, chemistry not given here; listed as Homo sapiens)", "ncRNA array expression, patient 4": "−1.691"}
